biological target: histidine-tagged recombinant human TrkA, cytoplasmic domain (Homo sapiens (Human), UniProt P04629); assay: TrkA ELISA Assay; conditions: 2.5 nM TrkA, 500 μM ATP, 25 minutes; read-out: TrkA Elisa Enzyme IC50
Sequence (P04629 440-796): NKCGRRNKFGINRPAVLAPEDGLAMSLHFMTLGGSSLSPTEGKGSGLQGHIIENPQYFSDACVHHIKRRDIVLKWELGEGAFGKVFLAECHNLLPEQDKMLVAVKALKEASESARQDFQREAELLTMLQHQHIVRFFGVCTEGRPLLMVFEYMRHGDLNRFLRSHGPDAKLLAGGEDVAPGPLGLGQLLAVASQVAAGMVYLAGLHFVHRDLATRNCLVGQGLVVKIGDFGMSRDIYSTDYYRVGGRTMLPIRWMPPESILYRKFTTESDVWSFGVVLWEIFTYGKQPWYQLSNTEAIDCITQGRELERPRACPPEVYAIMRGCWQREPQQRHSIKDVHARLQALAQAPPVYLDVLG
Structures can show the parent of a compound that is named as a salt.
METRIC: log10(IC50) (log10 of the value in nM)
Heads up, the numbers here are log10 of IC50 in nM units.

Worked cases, answers included:
> print(dat)
                                   molecule  test.value
1  O=C(Nc1cnn2ccc(N3CC(F)(F)C[C@@H]3c3cccc(F)c3)nc12)N1CC(O)C1        1.89
2  C[C@H]1CN(C(=O)Nc2cnn3ccc(N4CCC[C@@H]4c4cc(F)ccc4Cl)nc23)CCN1 [Example 25, hydrochloride]        1.92
3  Cn1nc(C(=O)Nc2cnn3ccc(N4CCC[C@@H]4c4cccc(F)c4)nc23)ccc1=O        1.28
4  N#CC1(C(=O)Nc2cnn3ccc(N4CCC[C@@H]4c4cc(F)ccc4F)nc23)CC1        0.62
5  O=C(Nc1cnn2ccc(N3CCC[C@@H]3c3cc(F)ccc3F)nc12)c1ncccn1        0.48
6  O=C(Nc1cnn2ccc(N3CCC[C@@H]3c3cc(F)ccc3Cl)nc12)N1CCC[C@@H](O)C1        1.07
7  O=C(Nc1cnn2ccc(N3CCC[C@@H]3c3cc(F)ccc3Cl)nc12)N1CCOCC1        1.62

Given the entry CC1(c2cccc(F)c2)CCCN1c1ccn2ncc(NC(=O)N3CC(O)C3)c2n1 (centres unmarked) , report its measured log10(IC50).
2.27
